# Tested On: GST P1-1 (Homo sapiens)
# Construct: purchased Sigma-Aldrich
# Assay Name: Determination of IC50 for GST P1-1 enzyme (dose-response / reconfirmation assay)
# Assay type: biochemical
# Measurement Parameters: reconfirmation assay, Table S2; read-out: IC50 GSTP1
Attribute Measured: IC50

Please review the following examples before continuing.
>  <Compound>
C[C@@H]1Cc2c([nH]c3ccccc23)[C@@H](c2c(F)cc(/C=C/C(=O)O)cc2F)N1CC(C)(C)F

>  <IC50>
2050 nM

$$$$
>  <Compound>
O=C(O)c1ccc2cc(-c3ccc(O)c(C45CC6CC(CC(C6)C4)C5)c3)ccc2c1

>  <IC50>
320 nM

$$$$
>  <Compound>
N#Cc1c(-c2ccccc2)cc(-c2cc(Br)ccc2O)[nH]c1=O

>  <IC50>
2150 nM

$$$$
>  <Compound>
Oc1c(Cl)cc(Cl)c(Cl)c1Cc1c(O)c(Cl)cc(Cl)c1Cl

>  <IC50>
420 nM

$$$$
>  <Compound>
CCCCCCCCCCCC1=C(O)C(=O)C=C(O)C1=O

>  <IC50>
640 nM

$$$$
>  <Compound>
O=C1NC(=O)/C(=C/c2ccc(-c3ccc(F)cc3O)o2)S1

>  <IC50>
610 nM

$$$$
>  <Compound>
Cl.O=C(O)Cc1cccc(OCCCN(Cc2cccc(C(F)(F)F)c2Cl)CC(c2ccccc2)c2ccccc2)c1 [GW3965 (hydrochloride)]

>  <IC50>
430 nM

$$$$
>  <Compound>
CCc1ccc(/C=C2/SC(=S)NC2=O)cc1

>  <IC50>
2750 nM

$$$$

Inquiry: Name the reported IC50 value associated with the compound `O=C(O)c1ccccc1Nc1ccc(CCc2ccc(Cl)c(Cl)c2)cc1`
Reply text: 330 nM

Inquiry: Try this compound next: `CC(C)c1cc(C(C)C)c(CC(=O)NS(=O)(=O)Oc2c(C(C)C)cccc2C(C)C)c(C(C)C)c1`
Reply text: 370 nM

Inquiry: Try this compound next: `Cc1cc(=O)n(-c2ccccc2)[nH]1`
Reply text: 830 nM

* * *

Measured Score by item
# Tested On: GST P1-1 (Homo sapiens)
# Construct: purchased Sigma-Aldrich
# Assay Name: High-throughput GST P1-1 inhibition assay (384-well screen, CDNB/GSH)
# Format: biochemical
# Measurement Parameters: compound 10 μM; score 0 = negative control (DMSO), 1 = positive control (EA 50 μM); average of duplicate
# Description: Each drug compound was added to the respective well at a volume of 80 nL of 10 mM stock solution in DMSO, yielding a final compound concentration of 10 μM and a final DMSO concentration of 0.1%. […] The plates were incubated for 2 h in the dark at 25°C and then the absorbance was of each well recorded on a BioTek Synergy NEO HTS multimode plate reader (Agilent®) at a wavelength of 340 nm. The z’factor was calculated for each plate according to Zhang et al.. […]
Give the figure by itself; no unit, no explanation.

>  <Molecule>
Cl.O=C(O)Cc1cccc(OCCCN(Cc2cccc(C(F)(F)F)c2Cl)CC(c2ccccc2)c2ccccc2)c1 [GW3965 (hydrochloride)]

>  <Meas Value>
1.027

$$$$
>  <Molecule>
Cc1noc(-c2ccc(CSCCC(=O)O)cc2)c1NC(=O)OC(C)c1ccccc1Cl (centres unmarked)

>  <Meas Value>
0.710

$$$$
>  <Molecule>
CCOc1c2c(c(OCC)c3ccccc13)C(=O)N(c1ccc(CC(=O)NS(=O)(=O)c3ccccc3)cc1)C2

>  <Meas Value>
0.854

$$$$
>  <Molecule>
CCN(CC)c1ccc(C(=C2C=CC(=[N+](CC)CC)C=C2)c2ccccc2)cc1

>  <Meas Value>
0.783

$$$$

Inquiry: Name the reported Score value associated with the molecule `C=CC1=C(C)c2cc3[nH]c(cc4nc(cc5[nH]c(cc1n2)c(C)c5CCC(=O)O)C(CCC(=O)O)=C4C)c(C)c3C=C`
Reply text: 0.914

Inquiry: Try this molecule next: `O=C(O)c1cc(N2N=C(C(F)(F)F)/C(=C/c3ccc(-c4ccccc4)o3)C2=O)ccc1Cl`
Reply text: 0.837

Inquiry: Try this molecule next: `O=C(O)c1ccc(-c2ccc3cc(O)c(C45CC6CC(CC(C6)C4)C5)cc3c2)cc1`
Reply text: 0.979

Inquiry: Try this molecule next: `O=C(O)C1(c2ccc(-c3ccc(Cl)c(Cl)c3)c(F)c2)CC1`
Reply text: 0.911

Inquiry: Try this molecule next: `CC1(C)CCC(C)(C)c2cc(Cn3cccn3)c(/C=C/c3ccc(C(=O)O)cc3)cc21`
Reply text: 0.763

Inquiry: Try this molecule next: `O=C1CC(=O)c2c(Cl)c(Cl)c(Cl)c(Cl)c21`
Reply text: 1.094

Inquiry: Try this molecule next: `O=C(Nc1ccc(Cl)cc1)Nc1ccc(Cl)c(Cl)c1`
Reply text: 0.702

Inquiry: Try this molecule next: `CC1=C(/C=C/C(=C/C=C/C(C)=C/C(=O)O)c2ccc(C)cc2)C(C)(C)CCC1`
Reply text: 0.733

Inquiry: Try this molecule next: CC(C)(c1ccc(OCC2CO2)cc1)c1ccc(OCC2CO2)cc1 (centres unmarked)
Reply text: 0.715

* * *

# System: MCF-7 cells
# Assay Name: MTT cytotoxicity assay, MCF-7
# Type: cell-based, human
# Measurement Parameters: Homo sapiens, MCF7; MTT, 72 h incubation; read-out: IC50 (average ± standard deviation) MCF-7
Attribute Measured: pIC50
Scale: negative log10 of molar concentration, which is what pIC50 denotes.

>  <Compound Structure String>
C[C@H]1COC2=C1C(=O)C(=O)c1c2ccc2c1CCCC2(C)C

>  <pIC50>
6.54

$$$$
>  <Compound Structure String>
O=C1C(=Cc2cccnc2)C(=O)c2ccccc21

>  <pIC50>
4.23

$$$$

Field: next compound
Inquiry: Name the reported pIC50 value associated with the compound `Cc1cc(O)c2c(=O)c3c(O)cc(O)c4c5c(O)cc(O)c6c(=O)c7c(O)cc(C)c8c1c2c(c34)c(c78)c65`
Reply text: 5.10

* * *

# Tested On: GST P1-1 (Homo sapiens, UniProt P09211)
# Construct: purchased Sigma-Aldrich
# Sequence (P09211 2-210 limits assumed): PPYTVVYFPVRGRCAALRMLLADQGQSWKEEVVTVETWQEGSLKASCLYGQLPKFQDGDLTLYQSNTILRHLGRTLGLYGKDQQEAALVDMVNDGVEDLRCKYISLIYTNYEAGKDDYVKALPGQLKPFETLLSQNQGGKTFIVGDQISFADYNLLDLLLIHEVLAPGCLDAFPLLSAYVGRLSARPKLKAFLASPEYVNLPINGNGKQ
# Assay Name: Determination of IC50 for GST P1-1 enzyme (dose-response / reconfirmation assay)
# Format: biochemical
# Measurement Parameters: Table 2, rounded values; read-out: IC50 GSTP1 enzymatic reaction
Attribute Measured: pIC50
Scale: negative log10 of molar concentration, which is what pIC50 denotes.

Please review the following examples before continuing.
>  <Compound Structure String>
O=C(O)c1ccc(S(=O)(=O)N(Cc2ccc(OC(F)(F)F)cc2)c2ncc(C(F)(F)F)cc2Cl)cc1

>  <pIC50>
5.51

$$$$
>  <Compound Structure String>
O=C(O)[C@]1(Cc2cccc(Nc3nccs3)n2)CC[C@@H](Oc2cccc(Cl)c2F)CC1

>  <pIC50>
5.49

$$$$
>  <Compound Structure String>
Cc1cc(O)c2c(=O)c3c(O)cc(O)c4c5c(O)cc(O)c6c(=O)c7c(O)cc(C)c8c1c2c(c34)c(c78)c65

>  <pIC50>
7.00

$$$$

Field: next compound
Inquiry: Name the reported pIC50 value associated with the compound `O=C(O)c1c(Sc2ccccc2)c2cc(Cl)ccc2n1Cc1ccc(Cl)cc1`
Reply text: 6.02

* * *

# Test system: MDA-MB-231 cells
# Assay Name: MTT cytotoxicity assay, MDA-MB-231
# Format: cell-based, human
# Measurement Parameters: MTT, 72 h incubation; read-out: IC50 (average ± standard deviation) MDA-MB-231
# Description: L929, MCF-7, and MDA-MB-231 cell lines were cultured in DMEM GlutaMAX media containing 10% heat-inactivated FBS and 1% (v/v) penicillin-streptomycin at 37°C and CO2 (5%). Cytotoxicity was determined using a 3-(4,5-dimethyl 2-thiazolyl)-2,5-diphenyl-2H-tetrazolium bromide (MTT) assay. […] The absorbance of the resulting solutions was measured at 570 and 630 nm using a SpectraMax M5e multimode microplate reader and SoftMax Pro software, version 6.2.2. […]
Criterion: IC50 strictly less than 50 µM. Met: Y. Not met: N.

Solved entries (count: 5):
>  <Compound>
O=C(O)c1cc(N2N=C(C(F)(F)F)/C(=C/c3ccc(-c4ccccc4)o3)C2=O)ccc1Cl

>  <Group>
Y

$$$$
>  <Compound>
O=C1NC(=O)/C(=C/c2ccc(-c3ccc(F)cc3O)o2)S1

>  <Group>
N

$$$$
>  <Compound>
O=C(O)c1ccccc1Nc1ccc(CCc2ccc(Cl)c(Cl)c2)cc1

>  <Group>
N

$$$$
>  <Compound>
Cl.O=C(O)Cc1cccc(OCCCN(Cc2cccc(C(F)(F)F)c2Cl)CC(c2ccccc2)c2ccccc2)c1 [GW3965 (hydrochloride)]

>  <Group>
N

$$$$
>  <Compound>
O=C(O)c1ccc2cc(-c3ccc(O)c(C45CC6CC(CC(C6)C4)C5)c3)ccc2c1

>  <Group>
Y

$$$$

Inquiry: Consider the compound `N#Cc1c(-c2ccccc2)cc(-c2cc(Br)ccc2O)[nH]c1=O` . Is its IC50 strictly less than 50 µM?
Reply text: N

Inquiry: Try this compound next: CC(C)(C)C(=O)CN1C(=O)[C@H](NC(=O)Nc2cccc(C(=O)O)c2)CN(C2CCCCC2)c2ccccc21 [Nastorazepide]
Reply text: N

Inquiry: Try this compound next: `O=C(O)c1c(Sc2ccccc2)c2cc(Cl)ccc2n1Cc1ccc(Cl)cc1`
Reply text: N

Inquiry: Try this compound next: `O=C1CC(=O)c2c(Cl)c(Cl)c(Cl)c(Cl)c21`
Reply text: N

Inquiry: Try this compound next: `C=CC(=O)c1ccc2ccccc2c1`
Reply text: Y

// provenance: paper PMC12289066
